Cited source for all entries: PubChem BioAssay AID463074

test system: HMLE_sh_eGFP viability, CellTiter-Glo luminescence, 72 h; test: cytotoxicity in HMLE control line with eGFP shRNA, dose response, counter-screen for HMLE_sh_ECad selective toxicity project, cell-based, HMLE_sh_eGFP, luminescence (AID 463074);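 further: counterscreen control line to flag general toxicity for the HMLE_sh_ECad screen; potency for loss of viability as luminescence drops below DMSO wells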;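 active means AC50 no more than tenfold above the top dose tested, or full inhibition at every dose with a flat fit (cut at about 19 µM in these data); inconclusive means flat curve fit with inhibition between 30% and 70%, or poor fit; inactive means AC50 more than tenfold above the top dose tested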
Form entry, call: pick from active, inactive

Example entries and their recorded answers appear below.
OCCCn1c(CCNc2nc(-c3ccc(Cl)cc3)cs2)nc2cc(C(F)(F)F)ccc21	active
O=C(Nc1ccc(-c2csc(Nc3cccc(C(F)(F)F)c3)n2)cc1)c1ccccc1	active

Now consider a different compound.
Write down the call the test reported for this compound. Item: COc1ccc(C(=O)Nc2ccc(OCC(F)(F)C(F)F)c(C(F)(F)F)c2)cc1OC active

====

test system: HMLE_sh_eGFP viability, CellTiter-Glo luminescence, 72 h; experiment: cytotoxicity in HMLE control line with eGFP shRNA, dose response, counter-screen for HMLE_sh_ECad selective toxicity project, cell-based, HMLE_sh_eGFP, luminescence (AID 463074);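 further: counterscreen control line to flag general toxicity for the HMLE_sh_ECad screen; potency for loss of viability as luminescence drops below DMSO wells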
experimental-endpoint: AC50

Sample records with AC50:
O=[N+]([O-])c1ccc(COc2ccc(-c3[nH]ncc3-c3ccccc3)c(O)c2)cc1	8.38 µM
CC(C)N(C(=O)CSc1nc2ccccc2n1-c1ccccc1)C(C)C	7.62 µM

Here is the next item to consider.
Let me check: C=CCc1cccc(/C=N/NC(=O)c2ccc3nc[nH]c3c2)c1O , system HMLE_sh_eGFP viability, CellTiter-Glo luminescence, 72 h, measured AC50 is 6.2 µM

====

system: HMLE_sh_eGFP viability, CellTiter-Glo luminescence, 72 h; assay: cytotoxicity in HMLE control line with eGFP shRNA, dose response, counter-screen for HMLE_sh_ECad selective toxicity project, cell-based, HMLE_sh_eGFP, luminescence (AID 463074);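 further: counterscreen control line to flag general toxicity for the HMLE_sh_ECad screen; potency for loss of viability as luminescence drops below DMSO wells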
In this section we review reported AC50 values for a set of molecules.

Sample records with AC50:
O=C1C=CC(=O)N1c1ccc(OC(F)F)cc1	11.9 µM
CCOC(=O)CS(=O)(=O)c1nc(-c2ccccc2)cc(C(F)(F)F)n1	3.25 µM
Cc1nn(-c2ccccc2)c2nc(N)c(C#N)c(-c3ccc(C(C)(C)C)cc3)c12	3.24 µM
COc1ccc(-c2sc3cc4c(cc3c2C#CC2(O)CCCCC2)OCO4)cc1	6.35 µM
CN1C(=O)/C(=C/c2cccc(Cl)c2)Sc2ccc(C(=O)NCc3cccnc3)cc21	5.15 µM
CC(C)CCNc1nc(-c2ccco2)c2c(c1C#N)CCCC2	11.3 µM
Cc1cccc(NC(=O)c2nc[nH]c2C(=O)NC2CCN(C(=O)OC(C)(C)C)CC2)c1	6.79 µM
CN(C)c1ccc(/C=C2\CCC/C(=C\c3ccccc3)C2=O)cc1	5.47 µM

Consider Cc1nn(-c2nc3ccccc3s2)c(C)c1Oc1ccccc1O . Its measured AC50 is 5.71 µM

Consider CCN1CCN(c2cc(-c3ccccc3)nc3cc(-c4cccc(F)c4)nn23)CC1 . Its measured AC50 is 5.65 µM

Consider O=S(=O)(Nc1ccc(O)c2ccccc12)c1ccc(OC(F)(F)F)cc1 . Its measured AC50 is 12.5 µM

====

tested on: HMLE_sh_eGFP viability, CellTiter-Glo luminescence, 72 h; assay: cytotoxicity in HMLE control line with eGFP shRNA, dose response, counter-screen for HMLE_sh_ECad selective toxicity project, cell-based, HMLE_sh_eGFP, luminescence (AID 463074);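 further: counterscreen control line to flag general toxicity for the HMLE_sh_ECad screen; potency for loss of viability as luminescence drops below DMSO wells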
experimental-endpoint: AC50

CCC/C(=C1/c2ccccc2C(=O)N1c1ccccc1)c1ccc2c(c1)OCCO2	4.08 µM
CC(NC(=O)c1ccc([N+](=O)[O-])o1)C12CC3CC(CC(C3)C1)C2 (stereo not given)	9.54 µM
OCCNc1nc(Nc2ccc(Cl)c(Cl)c2)nc2ccccc12	6.96 µM

Consider NS(=O)(=O)c1ccc(NC(=O)COC(=O)c2c3c(nc4ccccc24)/C(=C\c2ccc4c(c2)OCO4)CCC3)cc1 . Its measured AC50 is 6.87 µM

Consider CC(C)(Oc1ccc(Cl)cc1)C(=O)NC1=NN(c2ccccc2)C(=O)C1 . Its measured AC50 is 6.11 µM
